assay.target: UniProt:P81908
Sequence (P81908 whole entry): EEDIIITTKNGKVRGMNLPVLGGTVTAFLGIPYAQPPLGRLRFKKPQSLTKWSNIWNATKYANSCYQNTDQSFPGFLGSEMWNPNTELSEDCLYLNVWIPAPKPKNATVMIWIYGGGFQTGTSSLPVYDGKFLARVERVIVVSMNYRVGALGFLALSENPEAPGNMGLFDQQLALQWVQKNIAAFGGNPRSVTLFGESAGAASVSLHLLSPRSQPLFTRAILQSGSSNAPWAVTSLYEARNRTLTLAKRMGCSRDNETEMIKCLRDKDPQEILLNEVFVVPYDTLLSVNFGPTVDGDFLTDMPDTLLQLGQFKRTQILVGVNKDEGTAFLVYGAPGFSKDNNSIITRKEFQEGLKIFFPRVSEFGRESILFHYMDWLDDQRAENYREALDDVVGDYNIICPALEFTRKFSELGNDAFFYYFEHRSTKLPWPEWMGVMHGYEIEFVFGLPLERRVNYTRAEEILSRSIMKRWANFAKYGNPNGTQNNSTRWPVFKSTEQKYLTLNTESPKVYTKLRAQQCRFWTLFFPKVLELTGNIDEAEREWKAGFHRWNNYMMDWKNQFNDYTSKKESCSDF
pIC50: −log10 of the molar value.

>  <input.smiles>
O[C@H](CNCc1ccccc1)[C@H](Cc1ccccc1)NC1c2ccccc2-c2ccccc21

>  <assay.target>
UniProt:P81908

>  <pIC50>
6.20

$$$$
>  <input.smiles>
O[C@H](CNCC1CC1)[C@H](Cc1ccccc1)NC1c2ccccc2-c2ccccc21

>  <assay.target>
UniProt:P81908

>  <pIC50>
6.51

$$$$
>  <input.smiles>
COc1cccc(CNC[C@H](O)[C@H](Cc2ccccc2)NC2c3ccccc3-c3ccccc32)c1

>  <assay.target>
UniProt:P81908

>  <pIC50>
5.66

$$$$
>  <input.smiles>
CC(C)(C)c1cccc(CNC[C@@H](O)[C@H](Cc2ccccc2)NC2c3ccccc3-c3ccccc32)c1

>  <assay.target>
UniProt:P81908

>  <pIC50>
6.16

$$$$
>  <input.smiles>
O[C@@H](CNCC1CCCCC1)[C@H](Cc1ccccc1)NC1c2ccccc2-c2ccccc21

>  <assay.target>
UniProt:P81908

>  <pIC50>
6.02

$$$$
>  <input.smiles>
COc1ccccc1CNC[C@H](O)[C@H](Cc1ccccc1)NC1c2ccccc2-c2ccccc21

>  <assay.target>
UniProt:P81908

>  <pIC50>
6.55

$$$$

###

procedure.summary: Cell viability, PrestoBlue (neurotoxicity)
Assay type: cell-based
settings: mouse; HT-22, 0.1 µM, 24 h; read-out: viability, neurotoxicity X [%]
measure.name: viability at 24 h, 0.1 µM

>  <input.smiles>
O[C@H](CNCC1CC1)[C@H](Cc1ccccc1)NC1c2ccccc2-c2ccccc21

>  <value.observed>
99%

$$$$

###

pIC50 values by entry
assay.target: UniProt P31650
Sequence (P31650 1-627): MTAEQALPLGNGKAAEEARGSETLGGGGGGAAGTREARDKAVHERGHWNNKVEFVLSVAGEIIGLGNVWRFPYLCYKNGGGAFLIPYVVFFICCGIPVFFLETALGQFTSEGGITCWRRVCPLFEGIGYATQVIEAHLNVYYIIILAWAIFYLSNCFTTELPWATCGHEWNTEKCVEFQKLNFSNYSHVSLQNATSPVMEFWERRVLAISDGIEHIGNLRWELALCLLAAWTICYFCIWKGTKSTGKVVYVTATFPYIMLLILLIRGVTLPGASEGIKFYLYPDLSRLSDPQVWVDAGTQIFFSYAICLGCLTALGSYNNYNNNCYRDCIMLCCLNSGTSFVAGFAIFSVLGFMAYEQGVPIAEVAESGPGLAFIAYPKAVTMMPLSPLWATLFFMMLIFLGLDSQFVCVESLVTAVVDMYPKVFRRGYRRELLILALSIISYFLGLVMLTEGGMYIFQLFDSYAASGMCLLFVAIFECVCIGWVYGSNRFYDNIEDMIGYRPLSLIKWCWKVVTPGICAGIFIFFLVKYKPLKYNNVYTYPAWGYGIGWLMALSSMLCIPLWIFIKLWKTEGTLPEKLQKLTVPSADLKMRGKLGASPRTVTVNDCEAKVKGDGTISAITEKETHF
procedure.summary: [3H]GABA uptake assay, mGAT4
Assay type: cell-based
settings: GABA uptake assay; mGAT4 corresponds to GAT3; read-out: mGAT4 IC50
pIC50: −log10 of the molar value.
measure.name: pIC50

>  <input.smiles>
COc1ccccc1CNC[C@H](O)[C@H](Cc1ccccc1)NC1c2ccccc2-c2ccccc21

>  <value.observed>
5.21

$$$$
>  <input.smiles>
O[C@H](CNCc1ccccc1)[C@H](Cc1ccccc1)NC1c2ccccc2-c2ccccc21

>  <value.observed>
5.11

$$$$
>  <input.smiles>
COc1cccc(CNC[C@H](O)[C@H](Cc2ccccc2)NC2c3ccccc3-c3ccccc32)c1

>  <value.observed>
5.15

$$$$
